Reference source: ChEMBL document CHEMBL1122100

System: Salmonella enterica
protocol: Tested in vivo for the antibacterial activity against Salmonella choleraesuis after oral administration of 25 mg/kg in mice
Type: functional
# reported Protection; entries follow
Entry rule: numbers only, all in %.

// solved cases for Protection follow
{"molecular.string": "O=C1c2c([n+]([O-])c3ccccc3[n+]2[O-])CCN1CCN1CCCCC1", "study.target": "Salmonella enterica", "readout.units": "%", "Protection": 0}
{"molecular.string": "CCN1CCc2c([n+]([O-])c3ccccc3[n+]2[O-])C1=O", "study.target": "Salmonella enterica", "readout.units": "%", "Protection": 50}
{"molecular.string": "CN1CCc2c([n+]([O-])c3ccccc3[n+]2[O-])C1=O", "study.target": "Salmonella enterica", "readout.units": "%", "Protection": 100}
{"molecular.string": "O=C1NCCc2c1[n+]([O-])c1ccccc1[n+]2[O-]", "study.target": "Salmonella enterica", "readout.units": "%", "Protection": 0}
{"molecular.string": "COC(=O)N/N=C/c1c[n+]([O-])c2ccccc2[n+]1[O-]", "study.target": "Salmonella enterica", "readout.units": "%", "Protection": 100}
{"molecular.string": "C=CCN1CCc2c([n+]([O-])c3ccccc3[n+]2[O-])C1=O", "study.target": "Salmonella enterica", "readout.units": "%", "Protection": 0}

Recorded Protection of COCCN1CCc2c([n+]([O-])c3ccccc3[n+]2[O-])C1=O , please.
60

For the molecule shown here, O=C1c2c([n+]([O-])c3ccccc3[n+]2[O-])CCN1C1CCCCC1 , give the reported Protection.
0

Any idea what Protection was measured for O=C1c2c([n+]([O-])c3ccccc3[n+]2[O-])CCN1CCO ?
0
